pIC50: −log10 of the molar value.
Compiled record: pIC50 values for ACK1 (Homo sapiens) across several sources.

Study these solved cases before continuing.
>>> result("CCN(CC)C(=O)c1cc2n(c1)CCc1c(NC(=O)c3ccccc3C)n[nH]c1-2")
5.85
>>> result("Cc1ccc(NC(=O)c2cccc(C(F)(F)F)c2)cc1N1Cc2cnc(Nc3cnn(C)c3)nc2N(C)C1=O")
"> 7.52"
>>> result("CC(C)S(=O)(=O)Nc1cccc(-n2ccc3cnc(Nc4cc(F)c(N5CCN(C)CC5)cc4Cl)nc32)c1")
"> 6.60"
>>> result("CN1CCN(c2ccc(Nc3ncc4ccn(CC5CCCO5)c4n3)cc2OCCO)CC1 (stereo not drawn)")
"> 6.60"

Asked: Provide ACK1 (Homo sapiens) pIC50 reading for Cc1ccc(NC(=O)c2cccc(C(F)(F)F)c2)cc1N1Cc2cnc(NCCO)nc2N(C)C1=O .
Given back: > 7.52

Asked: Provide ACK1 (Homo sapiens) pIC50 reading for Cc1cc(C)c(C(=O)Nc2n[nH]c3c2CCn2cc(C(=O)N4CCC(N5CCCCC5)CC4)cc2-3)c(C)c1 .
Given back: 5.26
